# ASSAY_SYSTEM: Mcl-1/Bim interaction, recombinant human Mcl-1 (171-327) (Homo sapiens)
# Construct: made in house
# METHOD_SUMMARY: Cell free Mcl-1: Bim Affinity Assay (Mcl-1 HTRF)
# Assay type: binding
# PROTOCOL_CONDITIONS: cell free Mcl-1:Bim TR-FRET, recombinant human Mcl-1 (171-327)
TEST_READOUT: IC50 (nM)
One number for each entry, in nM.

The following molecules have reported results that may help.
- MOLECULE: "CCOC(=O)NCCO[C@H]1/C=C/C[C@H](C)[C@@H](C)S(=O)(=O)NC(=O)c2ccc3c(c2)N(C[C@@H]2CC[C@H]21)C[C@@]1(CCCc2cc(Cl)ccc21)CO3"
  TEST_VALUE: 0.891
- MOLECULE: "O=C1NS(=O)(=O)[C@H](CCOc2ccc(Br)cc2)CC/C=C/[C@H](O)[C@@H]2CC[C@H]2CN2C[C@@]3(CCCc4cc(Cl)ccc43)COc3ccc1cc32 (single isomer, unassigned)"
  TEST_VALUE: 38.3
- MOLECULE: "C[C@@H]1[C@@H](C)C/C=C/[C@H](OC[C@H]2CCCO2)[C@@H]2CC[C@H]2CN2C[C@@]3(CCCc4cc(Cl)ccc43)COc3ccc(cc32)C(=O)NS1(=O)=O"
  TEST_VALUE: 1.25
- MOLECULE: "C[C@@H]1CCCCCS(=O)(=O)NC(=O)c2ccc3c(c2)N(C[C@@H]2CC[C@H]21)C[C@@]1(CCCc2cc(Cl)ccc21)CO3 (single isomer, unassigned)"
  TEST_VALUE: 18.9
- MOLECULE: "O=C1NS(=O)(=O)CCOCCCC2CCC2CN2C[C@@]3(CCCc4cc(Cl)ccc43)COc3ccc1cc32 (stereo in doubt)"
  TEST_VALUE: 3.54
- MOLECULE: "COC[C@@H]1C[C@H](C)/C=C/[C@H](O)[C@@H]2CC[C@H]2CN2C[C@@]3(CCCc4cc(Cl)ccc43)COc3ccc(cc32)C(=O)NS1(=O)=O (single isomer, unassigned)"
  TEST_VALUE: 0.27
- MOLECULE: "NC(=O)OC[C@@H]1CC/C=C\\[C@H](O)[C@@H]2CC[C@H]2CN2C[C@@]3(CCCc4cc(Cl)ccc43)COc3ccc(cc32)C(=O)NS1(=O)=O (single isomer, unassigned)"
  TEST_VALUE: 0.362
- MOLECULE: "O=C1NS(=O)(=O)CCCCC[C@@H](O)[C@@H]2CC[C@H]2CN2C[C@@]3(CCCc4cc(Cl)ccc43)COc3ccc1cc32"
  TEST_VALUE: 6.8

Quick batch: IC50 for everything below.
1. CC[C@@H]1C/C=C/[C@H](OCC(=O)OC)[C@@H]2CC[C@H]2CN2C[C@@]3(CCCc4cc(Cl)ccc43)COc3ccc(cc32)C(=O)NS(=O)(=O)C1
2. O=C1NS(=O)(=O)N(CC2CCCO2)C/C=C/[C@H](O)[C@@H]2CC[C@H]2CN2C[C@@]3(CCCc4cc(Cl)ccc43)COc3ccc1cc32 (mixture of isomers)
3. O=C1NS(=O)(=O)[C@@H](CO)CCCC[C@H](O)[C@@H]2CC[C@H]2CN2C[C@@]3(CCCc4cc(Cl)ccc43)COc3ccc1cc32 (single isomer, unassigned)
4. C[C@@H]1CC[C@@H]2C[C@H]2[C@H](O)[C@@H]2CC[C@H]2CN2C[C@@]3(CCCc4cc(Cl)ccc43)COc3ccc(cc32)C(=O)NS1(=O)=O (single isomer, unassigned)
5. O=C1NS(=O)(=O)C2CC2CC=CC(O)C2CCC2CN2CC3(CCCc4cc(Cl)ccc43)COc3ccc1cc32 (single isomer, unassigned) [Example 793]

(A)
13.5
1.81
1.71
13.1
0.44

Quick batch: IC50 for everything below.
1. Cc1nnc(C[C@@H]2CC/C=C/[C@H](O)[C@@H]3CC[C@H]3CN3C[C@@]4(CCCc5cc(Cl)ccc54)COc4ccc(cc43)C(=O)NS2(=O)=O)o1 (single isomer, unassigned)
2. O=C1NS(=O)(=O)CC/C=C/C[C@@H](O)[C@@H]2CC[C@H]2CN2C[C@@]3(CCCc4cc(Cl)ccc43)COc3ccc1cc32 (single isomer, unassigned)

(A)
1: 0.308; 2: 11.1

Quick batch: IC50 for everything below.
1. O=C1NS(=O)(=O)N(Cc2ncco2)CC/C=C/[C@H](O)[C@@H]2CC[C@H]2CN2C[C@@]3(CCCc4cc(Cl)ccc43)COc3ccc1cc32
2. O=C1NS(=O)(=O)C/C=C/[C@]2(O)CCO[C@@H](C2)[C@@H]2CC[C@H]2CN2C[C@@]3(CCCc4cc(Cl)ccc43)COc3ccc1cc32 (single isomer, unassigned)
3. O=C1NS(=O)(=O)CCCCC[C@@H](NO)[C@@H]2CC[C@H]2CN2C[C@@]3(CCCc4cc(Cl)ccc43)COc3ccc1cc32 (single isomer, unassigned)
4. COC(=O)CC1C(C)CC=CC(O)C2CCC2CN2CC3(CCCc4cc(Cl)ccc43)COc3ccc(cc32)C(=O)NS1(=O)=O (stereo not drawn)
5. O=C1NS(=O)(=O)CCCCC[C@@H]2CC[C@H]2CN2C[C@@]3(CCCc4ccccc43)COc3ccc1cc32
6. CC[C@@H]1CC/C=C/[C@H](O)[C@@H]2CC[C@H]2CN2C[C@@]3(CCCc4cc(Cl)ccc43)COc3cc(F)c(cc32)C(=O)NS1(=O)=O

(A)
1: 0.763; 2: 2.75; 3: 15; 4: 0.188; 5: 48.2; 6: 0.884

====

# ASSAY_SYSTEM: Mcl-1/Bim interaction, recombinant human Mcl-1 (171-327) (Homo sapiens, UniProt Q07820)
# Construct: made in house
# Sequence (Q07820 171-327): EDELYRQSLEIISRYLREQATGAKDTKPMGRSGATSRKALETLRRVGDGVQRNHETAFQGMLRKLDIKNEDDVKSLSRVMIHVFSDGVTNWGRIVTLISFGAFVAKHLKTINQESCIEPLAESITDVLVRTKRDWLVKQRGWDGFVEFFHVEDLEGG
# METHOD_SUMMARY: Cell free Mcl-1: Bim Affinity Assay (Mcl-1 HTRF)
# Assay type: binding
# PROTOCOL_CONDITIONS: TR-FRET, 0.1 nM Mcl-1 (171-327), 0.05 nM biotin-Bim (51-76)
For each entry below, report its pIC50 value.
One number for each entry, as −log10 of the molar value.

- COMPOUND: "O=C1NS(=O)(=O)[C@@H]2CCC[C@H]2C/C=C/[C@H](O)[C@@H]2CC[C@H]2CN2C[C@@]3(CCCc4cc(Cl)ccc43)COc3ccc1cc32 (single isomer, unassigned) [Example 325]"
  pIC50: 9.53
- COMPOUND: "CC1CC(=O)N(C)CC2CCC2CN2CC3(CCCc4cc(Cl)ccc43)COc3ccc(cc32)C(=O)NS(=O)(=O)C1C (single isomer, unassigned)"
  pIC50: 7.71
- COMPOUND: "O=C1NS(=O)(=O)[C@H]2CCC[C@H]2C/C=C/[C@H](O)[C@@H]2CC[C@H]2CN2C[C@@]3(CCCc4cc(Cl)ccc43)COc3ccc1cc32 (single isomer, unassigned)"
  pIC50: 8.77

Quick batch: pIC50 for everything below.
1. CC[C@@H]1CC/C=C/[C@H](OC(C)=O)[C@@H]2CC[C@H]2CN2C[C@@]3(CCCc4cc(Cl)ccc43)COc3ccc(cc32)C(=O)NS1(=O)=O
2. O=C1NS(=O)(=O)[C@H]2CC[C@@H]2CCC[C@H](O)[C@@H]2CC[C@H]2CN2C[C@@]3(CCCc4cc(Cl)ccc43)COc3ccc1cc32

(A)
8.68
9.11

====

# ASSAY_SYSTEM: Mcl-1/Bim interaction, recombinant human Mcl-1 (171-327) (Homo sapiens, UniProt Q07820)
# Construct: made in house
# METHOD_SUMMARY: Cell free Mcl-1: Bim Affinity Assay (Mcl-1 HTRF)
# Format: binding
# PROTOCOL_CONDITIONS: TR-FRET, 0.1 nM Mcl-1 (171-327), 0.05 nM biotin-Bim (51-76)
pIC50: −log10 of the molar value.
// No strictly below 9 in pIC50; Yes otherwise

- COMPOUND: "COCCO[C@H]1/C=C/[C@H](C)[C@H](C)CS(=O)(=O)NC(=O)c2ccc3c(c2)N(C[C@@H]2CC[C@H]21)C[C@@]1(CCCc2cc(Cl)ccc21)CO3 (single isomer, unassigned) [Example 1065]"
  CLASSIFICATION: "Yes"
- COMPOUND: "C[C@@H]1/C=C/[C@H](O)[C@@H]2CC[C@H]2CN2C[C@@]3(CCCc4cc(Cl)ccc43)COc3ccc(cc32)C(=O)NS(=O)(=O)[C@@H](C)C1 (single isomer, unassigned) [Example 1022]"
  CLASSIFICATION: "No"
- COMPOUND: "COCCCN1[C@@H](C)C/C=C/[C@H](O)[C@@H]2CC[C@H]2CN2C[C@@]3(CCCc4cc(Cl)ccc43)COc3ccc(cc32)C(=O)NS1(=O)=O (single isomer, unassigned) [Example 72]"
  CLASSIFICATION: "Yes"
- COMPOUND: "CC[C@@H]1CCCC[C@@H](NC(=O)C(C)C)[C@@H]2CC[C@H]2CN2C[C@@]3(CCCc4cc(Cl)ccc43)COc3ccc(cc32)C(=O)NS1(=O)=O [Example 1083]"
  CLASSIFICATION: "No"
- COMPOUND: "CC[C@@H]1CC/C=C/[C@H](OCCC(=O)N2CCOCC2)[C@@H]2CC[C@H]2CN2C[C@@]3(CCCc4cc(Cl)ccc43)COc3ccc(cc32)C(=O)NS1(=O)=O [Example 1011]"
  CLASSIFICATION: "Yes"
- COMPOUND: "CC[C@@H]1CC/C=C/[C@H](O[C@H]2CCOC2=O)[C@@H]2CC[C@H]2CN2C[C@@]3(CCCc4cc(Cl)ccc43)COc3ccc(cc32)C(=O)NS1(=O)=O (single isomer, unassigned) [Example 425]"
  CLASSIFICATION: "Yes"

Query compound follows.
(Q) Tell me whether pIC50 is at least 9 here: C[C@@H]1CC(=O)NC[C@@H]2CC[C@H]2CN2C[C@@]3(CCCc4cc(Cl)ccc43)COc3ccc(cc32)C(=O)NS(=O)(=O)[C@@H]1C (single isomer, unassigned) [Example 151]
(A) No

This collection of values is drawn from patent US12091425B2.
